Biological target: furin, P09958;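 also: purified furin at 1:10 enzyme:substrate in 50 mM HEPES pH 7.5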
Sequence (P09958 whole entry): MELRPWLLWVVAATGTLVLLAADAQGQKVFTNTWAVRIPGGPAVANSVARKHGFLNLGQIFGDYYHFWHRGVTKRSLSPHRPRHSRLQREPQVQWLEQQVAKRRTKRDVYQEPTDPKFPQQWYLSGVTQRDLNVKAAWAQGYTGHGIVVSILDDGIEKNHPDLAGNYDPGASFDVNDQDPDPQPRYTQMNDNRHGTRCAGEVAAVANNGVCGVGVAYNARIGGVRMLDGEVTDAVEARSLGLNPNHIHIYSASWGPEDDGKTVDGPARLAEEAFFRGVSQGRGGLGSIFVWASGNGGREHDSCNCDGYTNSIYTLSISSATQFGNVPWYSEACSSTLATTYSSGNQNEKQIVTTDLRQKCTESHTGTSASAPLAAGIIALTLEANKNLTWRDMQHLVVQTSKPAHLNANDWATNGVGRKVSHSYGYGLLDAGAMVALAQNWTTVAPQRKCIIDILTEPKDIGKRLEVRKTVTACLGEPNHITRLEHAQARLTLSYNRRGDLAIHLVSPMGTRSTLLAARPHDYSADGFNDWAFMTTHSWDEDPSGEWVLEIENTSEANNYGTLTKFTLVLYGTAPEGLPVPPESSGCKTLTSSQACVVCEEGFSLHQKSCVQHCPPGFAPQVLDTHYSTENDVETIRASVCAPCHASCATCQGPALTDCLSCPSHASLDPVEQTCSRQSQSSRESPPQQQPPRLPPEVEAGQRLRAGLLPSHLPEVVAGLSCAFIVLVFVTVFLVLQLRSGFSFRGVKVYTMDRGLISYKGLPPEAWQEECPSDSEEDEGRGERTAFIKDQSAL
Experiment: furin cleavage Z-score vs untreated control; higher = more cleavage, active = 3.5 or more, inactive = 1 or less, 8 variable residues between constant flanks
Conditions: 30 min
The other results are listed elsewhere or left out. The true hit rate is not given.
API: response.call in active, inactive

Observe how each entry below is paired with its result.
[[record]]
sequence_input = "CAIHRRTPRSAGNASASA [FS-1213]"
class_name = "active"

[[record]]
sequence_input = "CAEVVMSTWVAGNASASA [HC128]"
class_name = "inactive"

[[record]]
sequence_input = "CAWRRRQKRRAGNASASA [FS-898]"
class_name = "active"


Hi, sorry to bother you, what did the test record for CATRCHCGAEAGNASASA [HC1174] ?
inactive

Then this sequence: CARQRRHPELAGNASASA [FS-2763]
active

Then this sequence: CARQRRSSGHAGNASASA [FS-3164]
active

Then this sequence: CARQRRPWEPAGNASASA [FS-2366]
inactive
